# method notes: Half life in Beagle dog plasma at 1 mg/kg, iv
# Format: ADME, organism-based, Canis lupus familiaris
recorded endpoint: half-life
Express your answer as a number followed by its unit.

Task: // returns reported half-life for input COc1cc(C)[nH]c(=O)c1CNC(=O)c1c(C)n([C@H](C)C2CCN(CC(F)(F)F)CC2)c2ccccc12 [CPI-1205]
Result: 1.84 h

* * *

# method notes: AUC (0 to infinity) in Sprague-Dawley rat at 25 mg/kg, po
# Assay type: ADME, organism-based
# Parameters: route oral, time infinity, dose 25 mg/kg
# measurement parameters: in vivo
recorded endpoint: AUC(0-inf)

Task: Would you mind telling me what AUC(0-inf) value was observed for `COc1cc(C)[nH]c(=O)c1CNC(=O)c1c(C)n([C@H](C)C2CCN(CC(F)(F)F)CC2)c2ccccc12` ?
Result: 7.06 µM·h
